Taken from PubChem BioAssay AID1259343.

Listed next: entries and their corresponding inhibition.
ASSAY_PROTOCOL: Mycobacterium tuberculosis growth inhibition, primary screen (AID 1259343)
APPLIED_CONDITIONS: at 10 µM, hits give high values
About 2,900 (47%) of roughly 6,200 compounds were called active. So high a share suggests a set chosen from earlier hits. The list shows a part of the results.
Report only the number, with the unit % understood.

Worked examples, 3 compounds total:
COMPOUND | inhibition, %
C=CCc1ccccc1OCCn1cnc2ccccc21 | 57
CC(CCc1ccccc1)NC(=O)c1c(O)nc2sccn2c1=O (stereo not given) | 62.6
CC(C)c1nc2c(c(=O)c3ccccc3n2C)c(=O)n1-c1ccccc1 | -10.5

Qu. Please give the measured inhibition for this compound: CC(NC(=O)c1c(O)nc2sccn2c1=O)c1ccccc1 (stereo not given)
Ans. 90.9

Qu. Same lookup for C=CCc1ccc(OCCCCn2cnc3ccccc32)c(OC)c1 , please.
Ans. 61.1

* * *

ASSAY_PROTOCOL: Mycobacterium tuberculosis growth inhibition, primary screen (AID 1259343)
APPLIED_CONDITIONS: at 10 µM, hits give high values
Out of some 6,200 compounds screened, about 2,900 (47%) were called active. So high a share suggests a set chosen from earlier hits. This is one part of the list.
ENDPOINT_LABEL: inhibition (%)
Quick note: give the figure in %, leave out the unit.

Below: 5 molecules and their reported inhibition.
MOLECULE | MEASURED
COC(=O)c1sccc1NS(=O)(=O)c1cc(Cl)cc(Cl)c1 | 7.22
COC(=O)c1sccc1S(=O)(=O)Nc1cc(C)ccc1OC | 54.2
CC(c1ccco1)N(C)C(=O)NCCc1cc(F)ccc1F (stereo unspecified) | 21.2
Cc1ccc(C2CC2C(=O)Nc2nc(C)c(SCC#N)s2)s1 (stereo unspecified) | 39.7
Clc1ccccc1-c1nnc(-c2ccc3c(c2)OCO3)o1 | 72.5

Qu. Item under review: O=C1NC(=O)C(=Cc2cc(Br)c(Sc3ccc(Cl)cc3)o2)S1 . Reported inhibition?
Ans. 85.2

* * *

ASSAY_PROTOCOL: Mycobacterium tuberculosis growth inhibition, primary screen (AID 1259343)
APPLIED_CONDITIONS: at 10 µM
About 2,900 (47%) of roughly 6,200 compounds were called active. Cut-off read from the data, not from the text of the source: active = inhibition above about 50%; inactive = the rest. So high a share suggests a set chosen from earlier hits. Some of the results follow.
Hi! Could you answer with just one of these? active, inactive

MOLECULE | CATEGORY_LABEL
Nc1nc(Cl)nc2c1ncn2[C@@H]1O[C@H](CO)[C@@H](O)[C@H]1O | active
O=C(Nc1nnc(-c2ccc3c(c2)OCCO3)o1)c1cccc2ccccc12 | active
Cc1cc(C(=O)N2CCC(N3CCCC(C(=O)N4CCOCC4)C3)CC2)no1 (stereo not drawn) | inactive
Clc1ccc(C=Nc2ccc3c(c2)OCO3)cc1 | active
Cc1nn2c(NCCCN(C)C)cc(-c3ccccc3)nc2c1-c1ccccc1 | inactive
Cc1n[nH]c(C)c1CCCCCOc1cccc(Cl)c1 | active
O=C(Nc1cccc(-c2cscn2)c1)C1CCN(Cc2cccc(-c3ccco3)c2)CC1 | active
COc1cc(OC)c2c(OC)c(-c3ccc4c(c3)OCO4)c(=O)oc2c1 | active
O=c1[nH]cnc2c1nnn2-c1ccc(OC(F)(F)F)cc1 | inactive
COc1cc(C(CC(=O)c2ccc(Cl)cc2)SCCO)cc(OC)c1OC (stereo not drawn) | inactive

Qu. Dear all, I need the recorded test outcome for COc1cccc(OCCN2CCN(c3ncnc4c3cnn4-c3ccccc3)CC2)c1 , thank you.
Ans. active

Qu. CCOC(=O)NC(=O)COC(=O)C1(Cc2ccccc2)CCCCC1 ?
Ans. active

Qu. Also need COC(=O)C1=C(O)C(C(=O)OC)C(c2cccs2)C(C#N)(C#N)C1c1cccs1 (stereo not drawn) , thanks.
Ans. inactive

Qu. Now try CCN1CCN(Cc2ccc(-c3cc4c(N[C@H](C)c5ccccc5)ncnc4[nH]3)cc2)CC1 .
Ans. inactive

Qu. Continue with C=CCn1c(SCc2c(C)noc2C)nc2sc(C)c(C)c2c1=O
Ans. inactive

Qu. Consider next the molecule O=C(NC1CCCC1)c1nc(-c2cccs2)no1 in the same way.
Ans. active

Qu. Then this molecule: COc1ccc(O)c(C=Nn2c(C)csc2=NC(C)C)c1
Ans. inactive

Qu. Same question, C=C(C)CN(C)C(=O)c1coc(COc2ccc3c(c2)OCO3)n1 this time
Ans. inactive
